- Tested on: healthy volunteers (bent side of the forearm)
- experimentSummary: 24 hour-occlusion patch test (Finn Chamber) of the original specimen
- Assay type: in vivo, human
- assaySetup: evaluation time 48 hrs; 46 persons; 0.03 ml original specimen
measurementType: Negative − (no reaction), number of subjects

For orientation, consider the following solved cases.
• CC(COC(=O)C(C)(C)C)OCC(C)OCC(C)OCC(C)OC(=O)C(C)(C)C (stereo not shown) [Example 3, Tetrapropyleneglycol dineopentanoate] = 46
• CC(COC(=O)C(C)(C)C)OCC(C)OC(=O)C(C)(C)C (stereo not shown) [Example 2, Dipropyleneglycol dineopentanoate] = 46

[a] CC(COC(=O)C(C)(C)C)OCC(C)OCC(C)OC(=O)C(C)(C)C (stereo not shown) [Example 1, Tripropyleneglycol dineopentanoate]
[b] CCCCCCCCC(=O)OCCCCCCC(C)C [compound 3, Isononyl nonanoate, reference compound]
Q) Just curious, which one has the larger Negative − (no reaction), number of subjects reading, a or b ? Refer to your chosen item by its label in the answer.
A) a

---

- Tested on: healthy volunteers (bent side of the forearm)
- experimentSummary: 24 hour-occlusion patch test (Finn Chamber) of the original specimen
- Format: in vivo, human
- assaySetup: evaluation time 48 hrs; 46 persons; 0.03 ml original specimen
measurementType: Positive +++ (Strongly positive), number of subjects

* CC(COC(=O)C(C)(C)C)OCC(C)OC(=O)C(C)(C)C (stereo not shown) [Example 2, Dipropyleneglycol dineopentanoate] | 0
* CCCCCCCCC(=O)OCCCCCCC(C)C [compound 3, Isononyl nonanoate, reference compound] | 0
* CC(COC(=O)C(C)(C)C)OCC(C)OCC(C)OCC(C)OC(=O)C(C)(C)C (stereo not shown) [Example 3, Tetrapropyleneglycol dineopentanoate] | 0
* CC(COC(=O)C(C)(C)C)OCC(C)OCC(C)OC(=O)C(C)(C)C (stereo not shown) [Example 1, Tripropyleneglycol dineopentanoate] | 0

---

- System: healthy volunteers (bent side of the forearm)
- experimentSummary: 24 hour-occlusion patch test (Finn Chamber) of the original specimen
- Type: in vivo, human
- assaySetup: evaluation time 48 hrs; 46 persons; 0.03 ml original specimen
- Method: “Test Method Using Patch Test” The test was conducted using a Finn Chamber (8 mm in diameter) with 24 hour-occlusion. Test subjects were 46 male and female healthy volunteers (33 males and 13 females) whose ages range from 22 to 59 (average 42); 0.03 ml of the original specimen of alkylene polyglycol dineopentanoate was applied on the bent side of the forearm of the test subjects for 24 hours. […]
measurementType: Equivocal ± (mild erythema), number of subjects

[1] CC(COC(=O)C(C)(C)C)OCC(C)OC(=O)C(C)(C)C (stereo not shown) [Example 2, Dipropyleneglycol dineopentanoate]
[2] CCCCCCCCC(=O)OCCCCCCC(C)C [compound 3, Isononyl nonanoate, reference compound]
Q) Just curious, which one has the larger Equivocal ± (mild erythema), number of subjects reading, 1 or 2 ? Refer to your chosen item by its label in the answer.
A) 2
(2: 5, 1: 0)

---

- System: healthy volunteers (bent side of the forearm)
- experimentSummary: 24 hour-occlusion patch test (Finn Chamber) of the original specimen
- Assay type: in vivo, human
- assaySetup: evaluation time 24 hrs; 46 persons; 0.03 ml original specimen
- Procedure: “Test Method Using Patch Test” The test was conducted using a Finn Chamber (8 mm in diameter) with 24 hour-occlusion. Test subjects were 46 male and female healthy volunteers (33 males and 13 females) whose ages range from 22 to 59 (average 42); 0.03 ml of the original specimen of alkylene polyglycol dineopentanoate was applied on the bent side of the forearm of the test subjects for 24 hours. […]
measurementType: Negative − (no reaction), number of subjects

For orientation, consider the following solved cases.
* CC(COC(=O)C(C)(C)C)OCC(C)OC(=O)C(C)(C)C (stereo not shown) [Example 2, Dipropyleneglycol dineopentanoate] | 46
* CC(COC(=O)C(C)(C)C)OCC(C)OCC(C)OC(=O)C(C)(C)C (stereo not shown) [Example 1, Tripropyleneglycol dineopentanoate] | 46

[a] CC(COC(=O)C(C)(C)C)OCC(C)OCC(C)OCC(C)OC(=O)C(C)(C)C (stereo not shown) [Example 3, Tetrapropyleneglycol dineopentanoate]
[b] CCCCCCCCC(=O)OCCCCCCC(C)C [compound 3, Isononyl nonanoate, reference compound]
Q) Just curious, which one has the larger Negative − (no reaction), number of subjects reading, a or b ? Refer to your chosen item by its label in the answer.
A) a
(a: 46, b: 31)
